B1: OR4K15 (parent)
chain: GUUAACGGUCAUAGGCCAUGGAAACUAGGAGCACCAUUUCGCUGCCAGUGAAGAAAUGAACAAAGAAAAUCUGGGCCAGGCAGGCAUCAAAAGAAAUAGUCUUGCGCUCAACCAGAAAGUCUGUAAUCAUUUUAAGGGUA

Variants of: B1
Assay: self-cleavage, relative activity (ratio to wild type); higher = more cleavage; in vitro, sequencing; the parent is a self-cleaving ribozyme
Give YES when the value for self-cleavage is at least 1. Give NO when it is less.

Would you please look over these solved cases?
**Query** # bool: self-cleavage of G58A A60G >= 1
**Result** YES

**Query** # bool: self-cleavage of A36U G83A >= 1
**Result** YES

**Query** # bool: self-cleavage of A64G A67G >= 1
**Result** YES

**Query** # bool: self-cleavage of G80A U102C >= 1
**Result** NO

**Query** # bool: self-cleavage of A96G A140U >= 1
**Result** YES

**Query** # bool: self-cleavage of U87C U103G >= 1
**Result** NO

Further cases:
**Query** # bool: self-cleavage of G29C C42U >= 1
**Result** YES
